Hey, just so you know, these numbers are from the RNAGym collection of RNA variant scans (doi:10.1101/gr.219683.116).

Reported exon inclusion enrichment index values for a set of variants
B1: mRNA-splicing (parent)
chain: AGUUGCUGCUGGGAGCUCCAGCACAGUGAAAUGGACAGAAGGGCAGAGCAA

variants of: B1; experiment: exon inclusion enrichment index; higher = more inclusion; WT1 exon 5 minigene, HEK293
Just the number, please, no unit attached.

mutation-key: G5C C6G U7C U10C A35G C36U
result-value: 0.0687
--
mutation-key: G5A C6G U7G C9A G15U
result-value: 0.000857
--
mutation-key: G5A C6U U7A G8U C9A U10A G11A
result-value: 0.0538

Okay, now this variant:
Query: What measured exon inclusion enrichment index goes with C6A U7A C9A U10A A40G G41U ?
Response: 0.576
